molecular target: Muscarinic acetylcholine receptor M1 (Homo sapiens) (UniProt P11229); experiment: Cholinergic receptor muscarinic 1 (CHRM1) small molecule antagonists, cell-based qHTS assay (AID 1963588); settings: CHRM1-CHO antagonist mode, calcium flux fluorescence; series mostly up to 61.5 µM; note: nearly all actives have a fitted effect of over 40% in size
Sequence (P11229 whole entry, looked up): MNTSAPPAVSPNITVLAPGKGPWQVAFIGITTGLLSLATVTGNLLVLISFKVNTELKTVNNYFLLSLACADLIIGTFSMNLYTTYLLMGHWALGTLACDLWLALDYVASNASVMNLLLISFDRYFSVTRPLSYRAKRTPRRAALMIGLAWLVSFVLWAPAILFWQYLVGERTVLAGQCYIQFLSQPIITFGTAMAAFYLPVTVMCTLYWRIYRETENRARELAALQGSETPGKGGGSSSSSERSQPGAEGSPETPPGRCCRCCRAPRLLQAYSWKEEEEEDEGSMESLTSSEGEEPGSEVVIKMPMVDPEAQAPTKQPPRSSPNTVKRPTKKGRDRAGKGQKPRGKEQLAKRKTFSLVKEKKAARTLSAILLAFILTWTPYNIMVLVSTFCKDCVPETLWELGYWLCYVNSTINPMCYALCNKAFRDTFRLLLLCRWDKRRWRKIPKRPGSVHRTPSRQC
Records with an inconclusive call do not appear. Activity calls are given as the source filed them. Calls come from the whole dose curve.
Labels: active, inactive

[[record]]
structureassmiles = "OC(c1ccc(Cl)cc1)(c1ccc(Cl)cc1)C(Cl)(Cl)Cl"
assignedlabel = "active"

[[record]]
structureassmiles = "C[C@@H](Oc1ccc(Cl)cc1Cl)C(=O)O"
assignedlabel = "inactive"

[[record]]
structureassmiles = "ClCc1ccccc1Cl"
assignedlabel = "inactive"

[[record]]
structureassmiles = "Cn1cc(C2=C(c3cn(C4CCN(Cc5ccccn5)CC4)c4ccccc34)C(=O)NC2=O)c2ccccc21"
assignedlabel = "inactive"

[[record]]
structureassmiles = "CCC(=O)c1ccc(Cl)cc1"
assignedlabel = "inactive"

[[record]]
structureassmiles = "BrCCCCBr"
assignedlabel = "inactive"

[[record]]
structureassmiles = "CC(=O)c1ccc(-c2ccccc2)cc1"
assignedlabel = "inactive"


* * *

target: 5-hydroxytryptamine receptor 2A (Homo sapiens); assay: 5-hydroxytryptamine receptor 2A (HTR2A) small molecule antagonists, cell-based qHTS assay (AID 1963586); details: HTR2A-CHO cells, DOI-induced calcium flux, fluorescence; series mostly up to 61.5 µM; note: nearly all actives have a fitted effect of over 45% in size
Records with an inconclusive call do not appear. Active and inactive are the calls of the source. The call rests on the fitted dose curve.
Outcome codes: Yes = active, No = inactive

[[record]]
compound = "CCN(CC)c1nc(C)cc(OP(=S)(OC)OC)n1"
assignedlabel = "No"

[[record]]
compound = "BrCCCBr"
assignedlabel = "No"

[[record]]
compound = "Nc1cc(Cl)ccc1O"
assignedlabel = "No"

[[record]]
compound = "N#C/C(N)=C(/N)C#N"
assignedlabel = "No"

[[record]]
compound = "BrCCCCBr"
assignedlabel = "No"

[[record]]
compound = "CCCCN(CCCC)C(=S)S"
assignedlabel = "No"

[[record]]
compound = "O=C(Oc1ccc(Br)cc1)N1CCN2CCC1CC2"
assignedlabel = "No"

[[record]]
compound = "CC(C)(C)c1ccc(CCOc2ncnc3ccccc23)cc1"
assignedlabel = "No"

[[record]]
compound = "Cc1cc(Cl)ccc1O[C@H](C)C(=O)O"
assignedlabel = "No"

[[record]]
compound = "CCOC(=O)NC(O)C(Cl)(Cl)Cl (stereo not drawn)"
assignedlabel = "No"

[[record]]
compound = "CCOP(O)OCC"
assignedlabel = "No"

[[record]]
compound = "CCC1(CC)C(=O)NC(=O)NC1=O"
assignedlabel = "No"

[[record]]
compound = "CN1C(=S)CN=C(c2ccccc2)c2cc(Cl)ccc21"
assignedlabel = "No"

[[record]]
compound = "COc1cc(C[C@@H](C)N)c(OC)cc1C"
assignedlabel = "Yes"

[[record]]
compound = "Cc1nc2ccccc2c(=O)n1-c1ccccc1Cl"
assignedlabel = "No"

[[record]]
compound = "Brc1ccc(Oc2ccc(Br)cc2Br)c(Br)c1"
assignedlabel = "No"

[[record]]
compound = "CC(C)(C)c1cc([N+](=O)[O-])cc([N+](=O)[O-])c1O"
assignedlabel = "No"

[[record]]
compound = "CCN(CC)CCc1c[nH]c2ccccc12"
assignedlabel = "Yes"

[[record]]
compound = "CC(C)(C)NCC(O)c1cc(Cl)c(N)c(C(F)(F)F)c1 (stereo not drawn)"
assignedlabel = "No"

[[record]]
compound = "O.O.O.O=C([O-])[C@H]([O-])[C@@H]([O-])C(=O)[O-].O=C([O-])[C@H]([O-])[C@@H]([O-])C(=O)[O-].[K+].[K+].[Sb+3].[Sb+3]"
assignedlabel = "No"

[[record]]
compound = "CCCCP(CCCC)CCCC"
assignedlabel = "No"

[[record]]
compound = "N#CN=C1SCCN1Cc1ccc(Cl)nc1"
assignedlabel = "No"

[[record]]
compound = "COC(=O)C(C)Oc1ccc(Oc2ccc(Cl)cc2Cl)cc1 (stereo not drawn)"
assignedlabel = "No"

[[record]]
compound = "CC[N+]1(C)CCCC(OC(=O)C(O)(c2ccccc2)c2ccccc2)C1 (stereo not drawn)"
assignedlabel = "No"

[[record]]
compound = "[O-][Cl+3]([O-])([O-])O"
assignedlabel = "No"

[[record]]
compound = "C[C@H](N)C(=O)c1ccccc1"
assignedlabel = "No"

[[record]]
compound = "CC1CCCCC1NC(=O)Nc1ccccc1 (stereo not drawn)"
assignedlabel = "No"

[[record]]
compound = "CN(C)CCc1c[nH]c2ccc(O)cc12"
assignedlabel = "No"

